Biological target: Sodium-dependent serotonin transporter (Rattus norvegicus)
Sequence (P31652 whole entry): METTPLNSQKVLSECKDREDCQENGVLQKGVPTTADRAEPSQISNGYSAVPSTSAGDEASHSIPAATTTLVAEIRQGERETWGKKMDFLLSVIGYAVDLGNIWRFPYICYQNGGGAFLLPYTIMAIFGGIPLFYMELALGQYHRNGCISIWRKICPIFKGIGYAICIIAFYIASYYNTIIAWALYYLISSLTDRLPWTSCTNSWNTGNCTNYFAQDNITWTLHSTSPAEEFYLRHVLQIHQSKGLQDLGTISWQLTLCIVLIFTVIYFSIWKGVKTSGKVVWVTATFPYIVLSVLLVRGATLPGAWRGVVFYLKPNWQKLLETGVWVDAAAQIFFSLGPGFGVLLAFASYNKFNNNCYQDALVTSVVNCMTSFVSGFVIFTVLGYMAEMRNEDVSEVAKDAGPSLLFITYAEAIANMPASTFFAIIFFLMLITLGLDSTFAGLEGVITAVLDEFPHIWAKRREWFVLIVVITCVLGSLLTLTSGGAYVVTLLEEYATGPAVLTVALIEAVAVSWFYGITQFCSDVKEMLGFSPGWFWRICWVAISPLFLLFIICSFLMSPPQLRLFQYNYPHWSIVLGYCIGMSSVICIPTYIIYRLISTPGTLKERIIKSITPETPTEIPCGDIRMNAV
Test: Inhibition of [3H]5-HT uptake at the rat serotonin transporter.
Parameter: log10(Ki). Scope: all listed entries.
Scale: log10; quantity: Ki; unit before log: nM

Lookup: Quick one: log10(Ki) of Fc1ccc(CN2CCC(CCOC(c3ccc(F)cc3)c3ccc(F)cc3)CC2)cc1 ?
Found: 2.78

Lookup: Quick one: log10(Ki) of Brc1ccc(CN2CCC(CCOC(c3ccccc3)c3ccccc3)CC2)cc1 ?
Found: 3.12

Lookup: Quick one: log10(Ki) of Fc1ccc(C(OCCC2CCN(Cc3ccc(I)cc3)CC2)c2ccc(F)cc2)cc1 ?
Found: 3.01

Lookup: Quick one: log10(Ki) of O=[N+]([O-])c1ccc(CN2CCC(CCOC(c3ccc(F)cc3)c3ccc(F)cc3)CC2)cc1 ?
Found: 3.19

Lookup: Quick one: log10(Ki) of O=[N+]([O-])c1ccc(CN2CCC(CCOC(c3ccccc3)c3ccccc3)CC2)cc1 ?
Found: 3.55

Lookup: Quick one: log10(Ki) of Fc1ccc(C(OCCC2CCN(Cc3ccc4ccccc4c3)CC2)c2ccc(F)cc2)cc1 ?
Found: 2.36

Lookup: Quick one: log10(Ki) of Ic1ccc(CN2CCC(CCOC(c3ccccc3)c3ccccc3)CC2)cc1 ?
Found: 3.41
